# systemTested: ENaC (Epithelial Sodium Channel) (Mus musculus, UniProt Q61180+Q9WU38+Q9WU39)
# Construct: Mouse kidney M−1 cells were cultivated in DMEM; endogenous in cells; host or cells: Mouse kidney M-1 cells, cultivated with dexamethasone on transwell filters
# Sequence (Q61180 whole entry): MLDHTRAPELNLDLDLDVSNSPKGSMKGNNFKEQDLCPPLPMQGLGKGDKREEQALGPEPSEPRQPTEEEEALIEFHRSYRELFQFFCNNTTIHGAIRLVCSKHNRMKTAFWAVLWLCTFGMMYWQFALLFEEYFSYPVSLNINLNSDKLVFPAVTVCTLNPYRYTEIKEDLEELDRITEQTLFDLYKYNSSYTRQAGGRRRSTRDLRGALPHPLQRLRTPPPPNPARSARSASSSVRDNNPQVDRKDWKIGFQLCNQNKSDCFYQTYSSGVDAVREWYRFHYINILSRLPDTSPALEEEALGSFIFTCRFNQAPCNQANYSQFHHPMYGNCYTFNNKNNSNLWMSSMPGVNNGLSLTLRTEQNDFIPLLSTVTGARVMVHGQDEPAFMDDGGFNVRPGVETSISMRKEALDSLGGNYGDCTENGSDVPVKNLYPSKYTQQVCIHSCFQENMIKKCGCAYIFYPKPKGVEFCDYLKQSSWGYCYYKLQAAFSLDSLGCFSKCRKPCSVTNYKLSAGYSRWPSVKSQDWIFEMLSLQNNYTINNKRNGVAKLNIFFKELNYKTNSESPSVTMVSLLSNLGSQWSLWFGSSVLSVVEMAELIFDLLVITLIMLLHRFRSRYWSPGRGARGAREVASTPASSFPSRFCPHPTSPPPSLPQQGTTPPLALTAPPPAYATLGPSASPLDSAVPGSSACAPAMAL
# Sequence (Q9WU38 whole entry): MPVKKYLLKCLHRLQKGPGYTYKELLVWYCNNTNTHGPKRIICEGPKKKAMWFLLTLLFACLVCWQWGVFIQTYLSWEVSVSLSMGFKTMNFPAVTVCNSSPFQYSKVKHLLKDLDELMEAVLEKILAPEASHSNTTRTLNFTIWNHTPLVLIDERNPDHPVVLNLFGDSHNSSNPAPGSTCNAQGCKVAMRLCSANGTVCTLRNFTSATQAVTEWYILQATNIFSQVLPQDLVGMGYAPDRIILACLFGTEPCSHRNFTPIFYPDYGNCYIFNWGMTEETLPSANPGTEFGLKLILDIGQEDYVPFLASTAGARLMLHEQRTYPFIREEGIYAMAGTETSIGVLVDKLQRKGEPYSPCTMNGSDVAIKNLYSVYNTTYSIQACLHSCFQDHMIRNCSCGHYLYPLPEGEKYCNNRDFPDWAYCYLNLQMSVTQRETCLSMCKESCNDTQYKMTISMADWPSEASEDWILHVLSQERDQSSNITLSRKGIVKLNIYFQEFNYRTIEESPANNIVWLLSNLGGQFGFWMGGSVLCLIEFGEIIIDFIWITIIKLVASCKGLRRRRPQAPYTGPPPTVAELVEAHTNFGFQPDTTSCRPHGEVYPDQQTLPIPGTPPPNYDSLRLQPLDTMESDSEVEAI
# Sequence (Q9WU39 whole entry): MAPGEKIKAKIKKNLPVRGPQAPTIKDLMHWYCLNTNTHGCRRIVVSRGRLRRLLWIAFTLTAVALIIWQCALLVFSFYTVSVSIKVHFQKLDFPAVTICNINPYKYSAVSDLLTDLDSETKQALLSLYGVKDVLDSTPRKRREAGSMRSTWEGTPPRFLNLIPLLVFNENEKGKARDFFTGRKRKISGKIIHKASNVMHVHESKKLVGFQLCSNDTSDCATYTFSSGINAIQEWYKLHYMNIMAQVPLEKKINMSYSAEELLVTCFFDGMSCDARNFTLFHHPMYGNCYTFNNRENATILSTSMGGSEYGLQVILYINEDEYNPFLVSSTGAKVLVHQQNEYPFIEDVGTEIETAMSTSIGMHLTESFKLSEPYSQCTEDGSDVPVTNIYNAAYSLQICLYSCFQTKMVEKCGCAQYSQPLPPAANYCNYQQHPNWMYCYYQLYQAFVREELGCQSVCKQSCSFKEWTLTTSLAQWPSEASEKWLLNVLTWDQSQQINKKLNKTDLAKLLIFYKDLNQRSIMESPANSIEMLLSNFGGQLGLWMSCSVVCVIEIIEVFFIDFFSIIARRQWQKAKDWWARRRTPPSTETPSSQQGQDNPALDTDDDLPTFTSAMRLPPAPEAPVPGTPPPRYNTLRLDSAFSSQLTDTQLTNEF
# assayExplanation: Ussing Chamber assay (short circuit current, amiloride sensitive I_SC)
# Type: cell-based
# assaySetup: Ussing chamber, mouse kidney M-1 cells, short circuit current, compound added to the apical solution; read-out: IC50
# Experimental: The IC50 values of the example compounds given above were determined in the Ussing Chamber assay. Ussing Chamber: Mouse kidney M−1 cells were cultivated in DMEM containing 5% FCS and 5 μM dexamethasone for 10 to 12 days on polyester transwell filters. […] Short circuit currents (I_sc) were measured in the voltage-clamp mode with the software package Lab View for data acquisition and analysis. […] Results are expressed as inhibition in percent of the amiloride effect or as IC50.
experimentalEndpoint: pIC50
Scale for pIC50: -log10 of concentration given in mol/L; no unit attached.

COCCNC(=O)COc1ccc(CCC[N+]2(CCCc3ccc(OCC(=O)NCCOC)cc3)CCC[C@H](NC(=O)c3nc(Cl)c(N)nc3N)C2)cc1: 7.92
Nc1nc(N)c(C(=O)N[C@H]2CCC[N+](CCCc3ccc(OCC(=O)N4CCN(CCO)CC4)cc3)(CCCc3ccc(OCC(=O)N4CCN(CCO)CC4)cc3)C2)nc1Cl: 7.01
CN(CC#N)C(=O)COc1ccc(CCC[N+]2(CCCc3ccc(OCC(=O)N(C)CC#N)cc3)CCC[C@H](NC(=O)c3nc(Cl)c(N)nc3N)C2)cc1: 7.03
Nc1nc(N)c(C(=O)N[C@H]2CCC[N+](CCCc3ccc(OCC(=O)NCCc4ccccn4)cc3)(CCCc3ccc(OCC(=O)NCCc4ccccn4)cc3)C2)nc1Cl: 8.22
COc1ccc(CCC[N+]2(CCCC3CCCCC3)CCCC(NC(=O)c3nc(Cl)c(N)nc3N)C2)cc1 (stereo not drawn): 7.00

Consider the record given below.
Query string: Can you share its pIC50? I mean this compound: COc1ccc(CCC[N@@+]2(C)CCC[C@H](NC(=O)c3nc(Cl)c(N)nc3N)C2)cc1
Result string: 7.15
